subjectOfTest: MAPK14 (human)
protocolDetails: Inhibition of LPS Stimulated TNF Production by U937 Cells
recordedConditions: concentration not given here
measuredAttribute: inhibition (%)

INSERT INTO results (compound, subjectoftest, measuredattribute, scaleunit, valuereported) VALUES
  ('CC(=O)OCC(=O)NCCc1[nH]nc(-c2ccc(F)cc2)c1-c1ccncc1', 'MAPK14 (human)', 'inhibition', '%', 57),
  ('C[C@H](NS(=O)(=O)c1ccccc1C#N)c1[nH]nc(-c2ccc(F)cc2)c1-c1ccncc1', 'MAPK14 (human)', 'inhibition', '%', 69),
  ('CCCCOc1ccc(S(=O)(=O)N[C@@H](C)c2[nH]nc(-c3ccc(F)cc3)c2-c2ccncc2)cc1', 'MAPK14 (human)', 'inhibition', '%', 80),
  ('C[C@H](NS(=O)(=O)C[C@@]12CC[C@H](CC1=O)C2(C)C)c1[nH]nc(-c2ccc(F)cc2)c1-c1ccncc1', 'MAPK14 (human)', 'inhibition', '%', 60);
